tested on: Escherichia coli; assay: microbe, parasite or virus in culture
Description: Inhibition of transcription and translation activity in Escherichia coli by luciferase reporter assay
endpoint: IC50
// unit must come after the numeric part

# IC50 (compound: CC(=O)NC[C@H]1CN(c2ccc3c(c2)CCCc2c(NC(C)C)n[nH]c2-3)C(=O)O1 ) is 2.2 µM

The compound identified as CC(=O)NC[C@H]1CN(c2ccc3c(c2)CCCc2c(NCCc4ccccn4)n[nH]c2-3)C(=O)O1 registered its IC50 at 1.7 µM

Form field IC50, entry CC(=O)NC[C@H]1CN(c2ccc3c(c2)CCCc2cn[nH]c2-3)C(=O)O1 : 0.45 µM

Entry under test: CC(=O)NC[C@H]1CN(c2ccc3c(c2)CCCc2c(N)n[nH]c2-3)C(=O)O1 . Its IC50 was 1.2 µM

Notebook: CC(=O)NC[C@H]1CN(c2ccc3c(c2)CCCc2c(NCc4ccccc4)n[nH]c2-3)C(=O)O1 , IC50 read as 2 µM

Lookup result for COc1ccc(CNc2n[nH]c3c2CCCc2cc(N4C[C@H](CNC(C)=O)OC4=O)ccc2-3)cc1 ; measured IC50: 2.2 µM

GET /value?item= COCCNc1n[nH]c2c1CCCc1cc(N3C[C@H](CNC(C)=O)OC3=O)ccc1-2 &field=IC50 returns 2.6 µM

Lab book: IC50 of CC(=O)NC[C@H]1CN(c2ccc3c(c2)CCCc2c(NCCN4CCOCC4)n[nH]c2-3)C(=O)O1 noted as 1.9 µM

For record CC(=O)NC[C@H]1CN(c2ccc3c(c2)CCCc2c(NCCCO)n[nH]c2-3)C(=O)O1 the listed IC50 is 1.8 µM

---

Would you mind telling me the reported IC50 of each entry?
test system: Escherichia coli; test: microbe, parasite or virus in culture
The answer is to be given in µM; state only the numeric part.

Record CC(=O)NC[C@H]1CN(c2ccc3c(c2)CCCc2c(NC(=O)C(O)CO)n[nH]c2-3)C(=O)O1 (stereo not given in full) , field IC50: 0.78

// IC50 value for CC(=O)NC[C@H]1CN(c2ccc3c(c2)CCCc2c(NC(=O)CO)n[nH]c2-3)C(=O)O1 : 1.3

Reported IC50 for COCCCNc1n[nH]c2c1CCCc1cc(N3C[C@H](CNC(C)=O)OC3=O)ccc1-2 was 2.9

Given item CCCNc1n[nH]c2c1CCCc1cc(N3C[C@H](CNC(C)=O)OC3=O)ccc1-2 , the value recorded as its IC50 is 2.5

Lookup result for CCNc1n[nH]c2c1CCCc1cc(N3C[C@H](CNC(C)=O)OC3=O)ccc1-2 ; measured IC50: 1.3

---

test system: Escherichia coli; assay: microbe, parasite or virus in culture
pIC50: −log10 of the molar value.
Please enter 1 where pIC50 is greater than or equal to 6, and 0 where it is lower.

Req: Given CC(=O)NC[C@H]1CN(c2ccc3c(c2)CCCc2c(NCCc4ccc(O)cc4)n[nH]c2-3)C(=O)O1 , state whether its pIC50 is at least 6.
Resp: 0

Req: // inclusive: pIC50 at least 6? input: CCN(CC)CCCNc1n[nH]c2c1CCCc1cc(N3C[C@H](CNC(C)=O)OC3=O)ccc1-2
Resp: 0

Req: Say whether CC(=O)NC[C@H]1CN(c2ccc3c(c2)CCCc2c(NCCCN)n[nH]c2-3)C(=O)O1 shows pIC50 of 6 or more.
Resp: 1
